System: HEK-293T
testSummary: Multiplex assay against HEK293T
Format: toxicity, cell-based
recordedConditions: human, 48 h, 1 µM, compound concentration 1 uM, replicate 1
Give 1 (yes) when the value for Population Membrane Permeable-Phenotype (%) is at least 2%. Give 0 (no) when it is less.

Can CN1CCC(=C2c3ccccc3CC(=O)c3sccc32)CC1.O=C(O)/C=C/C(=O)O [KETOTIFEN FUMARATE] be said to have Population Membrane Permeable-Phenotype (%) at or above 2%? 1 (yes)

For this compound, is measured Population Membrane Permeable-Phenotype (%) 2% or higher? O=C(Nc1ccc(Cl)cc1)Nc1cccc(-c2cccc(N3CCCC3)n2)c1 1 (yes)

Check the entry CCn1c(=O)c(-c2ccc(-c3cncs3)cc2Cl)cc2cnc(Nc3ccc(N4CCN(C)CC4)cc3)nc21 : does Population Membrane Permeable-Phenotype (%) equal or exceed 2%? 1 (yes)

Is Population Membrane Permeable-Phenotype (%) for O=C(Cc1ccc(-c2ccc(OCCN3CCOCC3)cc2)cn1)NCc1ccccc1 at or above 2%? 1 (yes)

Does O=C1NC(=O)C(c2cnc3ccccn23)=C1c1cn2c3c(cc(F)cc13)CN(C(=O)N1CCCCC1)CC2 have a reported Population Membrane Permeable-Phenotype (%) of at least 2%? 0 (no)

Could you verify whether the entry CN(C)C(=O)C(CCN1CCC(O)(c2ccc(Cl)cc2)CC1)(c1ccccc1)c1ccccc1.Cl [LOPERAMIDE HYDROCHLORIDE] shows Population Membrane Permeable-Phenotype (%) of no less than 2%? 0 (no)

Given the entry CCc1cccc(CC)c1NC(=O)c1nn(C)c2c1CCc1cnc(Nc3ccc(C(=O)NC4CCN(C)CC4)cc3OC(F)(F)F)nc1-2 , answer whether its Population Membrane Permeable-Phenotype (%) meets or surpasses 2%. 0 (no)

Given S=C(NCCCc1c[nH]cn1)NCCCN(Cc1ccc(Cl)c(Cl)c1)c1ccc(Br)cn1 , state whether its Population Membrane Permeable-Phenotype (%) is at least 2%. 1 (yes)

Item O=C(Nc1ccc(-c2ccnc(Nc3ccc(N4CCOCC4)cc3)n2)cc1)[C@@H]1CCCN1 with Population Membrane Permeable-Phenotype (%) of 2% or above? 1 (yes)

Determine whether this compound has Population Membrane Permeable-Phenotype (%) no lower than 2%: Cc1cn(-c2cc(NC(=O)c3ccc(C)c(Nc4nccc(-c5cccnc5)n4)c3)cc(C(F)(F)F)c2)cn1 0 (no)

Could you tell me if the measured Population Membrane Permeable-Phenotype (%) of COc1cc(N2CCN(C)CC2)ccc1Nc1ncc2c(n1)N(C)c1ccccc1C(=O)N2C reaches 2% or more? 0 (no)
